assay-text: folding stability dG unfold from chymotrypsin proteolysis; higher = more stable
folding stability dG unfold for assorted sequences
property-measured: folding stability dG unfold (kcal/mol)

| query-sequence | property-measured | endpoint-result |
| --- | --- | --- |
| SPKPFEMSIQIPGITPQALEKAVELARKDGWVENEIEPDPENNNVQIDVEMRGTPEKMHRAQNAIQEAIKSA [r9_652_TrROS] | folding stability dG unfold | 0.197 |
| SKKTITITIEDKETGLKVEITINEDGTITIKVYDKDGKLVAEVKAKIKLVKDKDGKIRLVIEEIEIKVKPSA [r9_434_TrROS_Hall] | folding stability dG unfold | 3.04 |
| SAGQPGKPIRKYTFDLPDDDKITVEVYMYPDGNMMIKIEDNNGKERNIMIPANDLQNMPIEDLVKWLRSAGG [r19_47_TrROS] | folding stability dG unfold | 3.57 |
| SDKVVIHFYPGMPVSNIVERVADNPDMTIEIVMPPGMKPSWYNYIRKALRDANIPKDQKVEIEWVPYDDMSA [r9_670_TrROS] | folding stability dG unfold | 3.92 |
| SAGGSAGGSAPMEIWVLIDSPEKAKDLAKEIAHELQQSGIKIKVEVEQPPNGYYLVKIRFDSAGGSAGGSAG [r3_211_TrROS] | folding stability dG unfold | 1.81 |
| SAGGKKIEIEIVFKEGEKAPSAEEIAKKLLEEIPNIKITSIEIVDVEYDEETGEKYVVVKITIEVEPPSAGG [r13_10_TrROS_Hall] | folding stability dG unfold | 3.14 |
| SSPALDEKYTAKVDAKVTSPEGKPLATFTIDVLTEEEAKKKIEEFVKELAEKLGRPDLPVTISNITIERVSA [r9_376_JUSTAS] | folding stability dG unfold | 0.921 |

---

folding stability dG unfold for assorted sequences
assay-text: folding stability dG unfold from trypsin proteolysis; higher = more stable
property-measured: folding stability dG unfold

| query-sequence | endpoint-result |
| --- | --- |
| SAGGSAGGSAGMETTVLEEVPPEELAKGQTRLEKLPDGTIIERTVAPEGEVVETKTIPPKSAGGSAGGSAGG [r17_2_JUSTAS] | 1.94 kcal/mol |
| SAMTVVIPPNLTALTEDGRPIHPDQVVEVYEAEAFPELGRVVARVKVFDPVSGEETEERLVLFFPDGAESAG [r14_258_TrMRF] | 1.26 kcal/mol |
| SAGGSAGGSEAKIELEYDEETNTLTVRIEVDGELYEERIEVTIEPAPPPPPPVEVVVVELPEESAGGSAGGS [r12_70_TrROS_Hall] | 1.56 kcal/mol |
| SAGGMVQISVTEIDPETGLITIEMKFPKGVDDPAKIAAAKAEAEAFAQELEKKLGLPVKVTFTPLPESAGGS [r16_304_JUSTAS] | 1.95 kcal/mol |
| SPDIEIEPMPNGSYMIEVPVPPDAESIEVPFPGNGRPVTIHRDPDKIHIFFNNPEQIEEIAEAIADGKPISA [r9_515_TrROS] | 0.0692 kcal/mol |
| SAGGSAGGSAGGSMTVTLSREELLRLLGVPPGVPIPESVLAKIKSIETLPDGSVTVTIGSAGGSAGGSAGGS [r4_369_JUSTAS] | 1.98 kcal/mol |
| SAGGSAGGSAGLNITYTTTITYPDGTVVTEPVVSSGSLEEAIARARELEKKHPNVEVEVSPEGSAGGSAGGS [r12_268_JUSTAS] | 0.396 kcal/mol |
| SAGGSMSVEVEVLAKVKLPNGEEVTFPVRVTYNPETGEVTVEIDLPKEVFERLKELYPDGIIAPEPSAGGSA [r2_409_TrMRF] | 2.79 kcal/mol |
| SAGKVIVIDAEEMTEEELKEILKKTKPGEKILIIAKSKEVAEKLKELGFEVEEVEKVPLTEEELKKLKKSAG [r5_354_TrROS_Hall] | 0.835 kcal/mol |
| SAGGSAGGSLHPSQPLLVTVEVEVDPETGTVRLRVSVWVPGPRERLLERELEVPLHSLPEGALSAGGSAGGS [r12_145_TrMRF] | 1.69 kcal/mol |
| SMPPEDPGELTLVVPDTRNVTVTLPVPVPPEARVLVTFSDGRRVEAPAGTELTFTIPPGRPYVIRVEVYASA [r9_79_TrMRF] | 1.2 kcal/mol |
| GYTITSEVEEFEDPNSDAKYTKVTIPVVDGDPEVAREAAEEIAKERFGPGATLDIKYDPETGTVTATFTVAS [r1_273_JUSTAS] | 0.511 kcal/mol |
| SAGMVIPYKELKKNLSEEELIELAKEAAEKLGYKPKKIEIKETPEPDKYIVIDVIDENGNKHPIVFPSKSAG [r5_745_TrMRF] | 0.69 kcal/mol |
| SAGGSAGGSAGGSGPPSLPGVLVEIPEPLPGPEGTEFSDPKGYKYTYDPSNGKVLVERASAGGSAGGSAGGS [r4_78_JUSTAS] | -0.753 kcal/mol |
| SAGGSAGGSAGGMPVEVTTLETRKDPAGTTTEITLDPKTGRTIIVTKYPNGGSETTVVESAGGSAGGSAGGS [r10_1118_JUSTAS] | 0.788 kcal/mol |
| SAKIEIIKKDGEYYLRITLENGKKKTIKLKGIKKIEIKNGKIYIYNKKTGKKIILKNAKIKKIEIEKVPSAG [r14_83_TrROS_Hall] | 3.1 kcal/mol |
| SAGAVEKLRKELEELGYEVELEEVEDEETGKTYFILRIRNPDGEIYEIKVDKKTGEIVEIFKVDNLEELSAG [r5_938_TrROS_Hall] | 3.83 kcal/mol |
| SAMTPEFFETIKEASREGDIAAVLEAAEAIKTEFPDTGLTVDVVIEPREDDRFVIEVRVDYPPNLEGLASAG [r14_690_TrMRF] | -0.142 kcal/mol |
| SAGGSAGGSAMPPLISTTPILGEEPGKRLVREIVTLPDGSLIELTYDEDGNVIESKKYIVGKSAGGSAGGSA [r18_467_JUSTAS] | 0.132 kcal/mol |
| SETVTIEVEIEVKLPDGSTYRVRLTVEFDKETGKITLKMTVEYNGKTYEVELSEEEIKALLDELLKKLGLSA [r9_1136_TrROS_Hall] | 4.22 kcal/mol |
| SAGGLENLENFELVETLTVKLPNGDKPVTLTLYRHPDGPAENVTSYEGKKYVFVVTDDSIEFFEGGTSAGGS [r16_711_TrMRF] | 0.0263 kcal/mol |
| SAGGSAMSLEELKGHLVRLTLPDGRVVVAPVKEMDEEAPVLVIEFGGKPILIPKDAPVKLEVLPPGSAGGSA [r15_355_TrMRF] | 0.962 kcal/mol |
| SAGGMPVPVTFPFAGADEVIAFATALEELVNAPVGLTLISPSGEEREVGDPDSIVDEDGFTVRVTVPASAGG [r13_620_TrMRF] | 1.38 kcal/mol |
| SAGGSAKMTLIIKVSPEMTKEELEELARKLAEELNVKVEIEYDEETGLATVTIEKDGKKIEIIVERSAGGSA [r15_168_TrROS_Hall] | 1.98 kcal/mol |
| SAGGSAGGSAKENEKISIGPEITETGLDILEIKVDTNTKVVTIRFANKIYRIDKNGNISIVSSAGGSAGGSA [r18_445_TrMRF] | 1.73 kcal/mol |
| SAGGSAGGSAGMVFPVDGKEVVIDRGADDALRVTVFGPDGSASEAVFPGKDIPTVLKALSSAGGSAGGSAGG [r11_934_TrMRF] | -0.23 kcal/mol |
| SAGGSATVEVATEPDGTVTVTTLETDPAEPRGTVTTTTVTVTTEPTPEPFLSSSTTTTTTATAPAPSAGGSA [r15_438_JUSTAS] | 0.138 kcal/mol |

---

assay-text: folding stability dG unfold from trypsin proteolysis; higher = more stable
Mark FALSE for folding stability dG unfold values under 2 kcal/mol, and TRUE for everything at or above.

| query-sequence | label-class |
| --- | --- |
| SAGGMKTLTITLTVRNPATQETLTLTITVPEGMSEEELQALLKQLQELVEALLQLPPPPPPPPPELESAGGS [r16_191_TrROS_Hall] | TRUE |
| SGEIIGEQTFPVEDGGKVPVKIYKNPGNLYAEVFNDDDKPIQEQEIPPDDDLEDIENIKLPPGAWVRIYWSA [r9_215_TrROS] | FALSE |
| SAGGEAEVVEPEEKLEIVDKETGKKITVYKVKNKETGEEVVLVEIEKNGKKYTVLMTKDELEALLKKSAGGS [r16_603_TrROS_Hall] | TRUE |
| SAGGSAGGKWIHINPNSYNIKIQDPGSGKEEEIQFDSPEELIDEIKKQFPGVPVEIHPNGWFKISAGGSAGG [r6_288_TrROS] | FALSE |
| SAGGSAGGSAGLPPGDKVTISIPIVIPDGYMINSHITIDPDNGETEIEIQIYPLKDPDALSAGGSAGGSAGG [r11_695_TrROS] | TRUE |
| SAGPPGMRMVPFTIELPGKKIEIHVMEYPNGPPQYMVEIEDPNGKPKWTIMVTGPEARDLLEKAGIKFSAGG [r19_90_TrROS] | FALSE |
| SAGGGPVTEETYTIKRPDGTELVVTRYYFPGTGETVVRIYPPSTKTPLSTVPLSEASPELLAEIARRSAGGS [r8_32_JUSTAS] | FALSE |
| SAGGMEVVENPGGNLKIIEKEPEGPEFVKTTTTTIKTFKNPGGSTSSTITTTTTTVKISKSKNPELLSAGGS [r16_802_JUSTAS] | FALSE |
| SAGSGVILRTPEGKYVPLSALSEEEIKTAIEDPLSPAPPVTVEVTVTSVRLPVPRTVTTTEVVVTVLGSAGG [r19_232_JUSTAS] | FALSE |
| SAGGSAGGMTVTFTLPATAPENALENVTATVTYNGKTYLVKITATPVPDGPFVVVTAELVEYDPSAGGSAGG [r6_415_TrMRF] | TRUE |
| SAGGSAKIEIPIMIPMPPGQEFDLKIRIPNLWKIKIERIYVSPDPGWIMFRIEIEPVAPPNDPEQMSAGGSA [r15_994_TrROS] | TRUE |
| SAGGPDIKIKWKIEVNPDNGMIWLTMEIEVPNPNGDFYKVRADIYIPIVNPDDGKFPIFIMLEVEPVPSAGG [r13_715_TrROS] | TRUE |
| SAGGSAGGSAGPEVRIELERDEDGRLRLRATFKLEDGKEVRVEVEFDLKTKKLTVKIEPVSAGGSAGGSAGG [r11_107_TrROS_Hall] | TRUE |
| SAMMTPEERAFVERLRALFAERGGRIEIRFFEEPDRIEILVEEDDPELIREIREELARIPFPISRIVEESAG [r14_284_TrMRF] | TRUE |

Hey, just so you know, these numbers are from the supplement of paper PMC12764529.
